The reader will find reported TGI values listed item by item below.
Test system: MOLT-4 leukemia
Test: NCI tumour cell line growth inhibition, 48 h
The reply should be a number in µM, with the unit left off.

O=C1c2c(c3c4ccccc4[nH]c3c3[nH]c4ccccc4c23)C(=O)N1Cc1ccccc1 | 7.51
CC(C)(O)CCc1ccc(O)c2c(=O)c3c(O)c4c(cc3oc12)O[C@H]1OC=C[C@@]41O | 0.422
CN(C)/C=C/c1c2c(nc3ccccc13)C(=O)c1ccccc1C2=O | 6.32
CC1CC(C(=O)OC2OC(COC3OC(CO)C(OC4OC(C)C(O)C(O)C4O)C(O)C3O)C(O)C(O)C2O)C2CCC3(C)C(=CCC4(C)C3CCC3C(C)(CO)C(O)C(O)CC34C)C2C1C (centres undefined) | 41.4

[ask] MOLT-4 leukemia / TGI / CCN(CC)c1ccc(/C=C/C=C(/C#N)C(N)=S)cc1 : value?
[reply] 12

====

Tested on: UO-31 renal
Test: NCI tumour cell line growth inhibition, 48 h
Where a SMILES comes first, the peptide text is derived from it. The star is where a group is joined. Cbz = O=C(OCc1ccccc1)*
The reader will find reported TGI values listed item by item below.

Before answering, review these 2 worked examples.
O=S(=O)(O)c1ccccc1N=Nc1ccc(N=Nc2c(O)ccc3ccccc23)c(S(=O)(=O)O)c1 | > 100 µM
CNCCCn1c2c(c3ccc(F)cc3c1=O)C(=O)c1cc(OC)cnc1-2 | 0.809 µM

[ask] So what does the record say about TGI for CN(C)c1ccc(/C=N/NC(=O)c2cccc3ccccc23)c(Cl)c1 ?
[reply] > 100 µM

[ask] So what does the record say about TGI for COC[C@@H](N=CN1CCc2cc(OC)c(OC)cc2C1)C(C)(C)C ?
[reply] > 100 µM

[ask] So what does the record say about TGI for O=c1[nH]c(=O)n2n1C1C=CC2CC1 ?
[reply] > 100 µM

[ask] So what does the record say about TGI for COC(=O)/C(=C\c1c(-c2ccccc2)[nH]c2ccccc12)S(C)(=O)=O ?
[reply] 28.7 µM

[ask] So what does the record say about TGI for CCN1C(=O)N(CC)C2C1NN=c1s/c(=C\c3cccc([N+](=O)[O-])c3)c(=O)n12 (stereo not drawn) ?
[reply] > 100 µM

[ask] So what does the record say about TGI for CCOC(=O)CNC(=O)C(C)NC(=O)C(NC(=O)OCc1ccccc1)C(C)C (stereo not drawn) (Cbz-Val-Ala-Gly-OEt; configuration not given here) ?
[reply] > 100 µM

[ask] So what does the record say about TGI for CCCCS(=O)CC(CO)NC(=O)/C=C/c1c(C)[nH]c(=O)[nH]c1=O (stereo not drawn) ?
[reply] 73.3 µM

[ask] So what does the record say about TGI for Cc1cc(=O)c2ccccc2n1CCCCCCCCCCn1c(C)cc(=O)c2ccccc21 ?
[reply] 25.6 µM

[ask] So what does the record say about TGI for O=C1c2c(c3c4ccccc4[nH]c3c3[nH]c4ccccc4c23)C(=O)N1Cc1ccccc1 ?
[reply] 6.69 µM

[ask] So what does the record say about TGI for O=C(NC(=O)c1cc2cc(Br)cc(Br)c2oc1=O)Oc1ccccc1 ?
[reply] > 100 µM

[ask] So what does the record say about TGI for Cc1cc(O)cc(C)c1/C=C/c1cncc(C(=O)OC(C)(C)C)c1 ?
[reply] > 25 µM
